Target: trypsin (Bos taurus)
Construct: purchased Sigma-Aldrich T8003; host or cells: bovine pancreas (tissue-derived preparation)
Sequence (P00760 24-246): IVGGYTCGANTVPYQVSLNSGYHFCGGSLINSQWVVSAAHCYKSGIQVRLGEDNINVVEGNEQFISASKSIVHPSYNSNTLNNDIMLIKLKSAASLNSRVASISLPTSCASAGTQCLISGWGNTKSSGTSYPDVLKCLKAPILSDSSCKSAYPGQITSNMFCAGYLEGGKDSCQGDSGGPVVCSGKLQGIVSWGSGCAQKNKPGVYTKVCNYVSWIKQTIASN
Assay: In vitro trypsin-mediated cleavage of oxycodone prodrugs
Type: biochemical, bovine
Settings: bovine, trypsin from bovine pancreas; 0.761 mM prodrug, Tris pH 8, 37° C.; adjusted to 4815 BAEE U trypsin/mL
Exercise: state measured half-life at 0.761 mM for each of the compounds provided.
# number then unit; no other words

Note to self: half-life at 0.761 mM recorded for COc1ccc2c3c1O[C@H]1C(OC(=O)N4CCCC4CNC(=O)[C@H](CCCNC(=N)N)NC(=O)CC(=O)O)=CC[C@@]4(O)[C@@H](C2)N(C)CC[C@]314 (stereo partly shown) [Compound KC-10] was 9.01 min

Please report half-life at 0.761 mM for every entry that follows.
1. COc1ccc2c3c1O[C@H]1C(OC(=O)N4CCCCC4CNC(=O)[C@H](CCCNC(=N)N)NC(=O)[C@H](C)NC(=O)CC(=O)O)=CC[C@@]4(O)[C@@H](C2)N(C)CC[C@]314 (stereo partly shown) [Compound KC-15]
2. COc1ccc2c3c1O[C@H]1C(OC(=O)N4CCCC[C@@H]4CNC(=O)[C@H](CCCNC(=N)N)NC(=O)CNC(=O)CC(=O)O)=CC[C@@]4(O)[C@@H](C2)N(C)CC[C@]314 [Compound KC-17]
3. COc1ccc2c3c1O[C@H]1C(OC(=O)N4CCCCC4CNC(=O)[C@H](CCCNC(=N)N)NC(=O)CNC(C)=O)=CC[C@@]4(O)[C@@H](C2)N(C)CC[C@]314 (stereo partly shown) [Compound KC-14]

Ans:
["0.173 min", "2.65 min", "0.514 min"]

====

Assay: Pharmacokinetics following PO administration of increasing doses of Compound KC-31 to rats
Settings: male, Sprague Dawley, rat, plasma, 10 mg/kg
outcome-measure: Cmax (ng/mL)
Numbers only, in ng/mL.

Note to self: Cmax recorded for COc1ccc2c3c1O[C@H]1C(=O)CC[C@H]4[C@@H](C2)N(C)CC[C@]314 [Hydrocodone, hydrocodone] was 5.49

====

Test: Pharmacokinetics following PO administration of increasing doses of Compound KC-31 to rats
Conditions: male, Sprague Dawley, rat, plasma, 10 mg/kg
outcome-measure: Tmax (h)
Give bare numbers, in h.

Note to self: Tmax recorded for COc1ccc2c3c1O[C@H]1C(=O)CC[C@H]4[C@@H](C2)N(C)CC[C@]314 [Hydrocodone, hydrocodone] was 1.06

====

Assay: Oral administration of Compound KC-55 co-dosed with Compound 109 to rats
Conditions: male, Sprague Dawley, rat, plasma, 36 umol/kg
outcome-measure: Cmax (µg/mL)
Numbers only, in µg/mL.

Note to self: Cmax recorded for COc1ccc2c3c1O[C@H]1C(=O)CC[C@@]4(O)[C@@H](C2)N(C)CC[C@]314 [Oxycodone, oxycodone] was 0.0188
